# assay-notes: Hydrolysis Assay - Condition 1 (SGF)
# Type: physicochemical
# details: SGF with pepsin pH 1.5, 37° C., 0.5 mM, 24 h

{"columns": ["mol-smiles", "Condition 1 Conversion (%)"],
 "data": [
  ["COc1ccc([C@@]23CCC(OC(=O)N(C)C)=C[C@@H]2N(C)CC3)cc1OC", 0],
  ["COc1ccc([C@@]23CCC(OC(=O)OC(C)(C)C)=C[C@@H]2N(C)CC3)cc1OC", 100],
  ["CCN(C)C(=O)OC1=C[C@@H]2N(C)CC[C@]2(c2ccc(OC)c(OC)c2)CC1", 0],
  ["COc1ccc([C@@]23CCC(OC(=O)N4CCN(C)CC4)=C[C@@H]2N(C)CC3)cc1OC", 0],
  ["COc1ccc([C@@]23CCC(OP4(=O)OCC(C)(C)CO4)=C[C@@H]2N(C)CC3)cc1OC", 0]
]}

Values were extracted from patent US20240408119A1.
